test system: HL-60(TB) leukemia; assay: NCI tumour cell line growth inhibition, 48 h

- molecule: "C[C@@]12CCC[C@@](C)(C(=O)O)C1CC[C@@]13CC(=O)[C@@](CO)(CCC12)C3 (stereo partly specified)"
  TGI: "> 100 µM"
- molecule: "Cc1ccc(N(C(=O)CC(=O)N2N=C(c3ccccc3)C(N=Nc3ccc([N+](=O)[O-])cc3)C2=O)C(=O)c2ccc(Cl)cc2)cc1 (stereo unspecified)"
  TGI: "> 56.5 µM"
- molecule: "CC(C)(C)OC(=O)NCCNC(=O)CN(CC(=O)O)C1CCCCC1N(CC(=O)O)CC(=O)O (stereo unspecified)"
  TGI: "> 100 µM"
- molecule: "N#CI1OC(C(F)(F)F)(C(F)(F)F)c2ccccc21"
  TGI: "> 100 µM"
- molecule: "Cc1ccnc2sc3ccccc3c(=O)c12"
  TGI: "> 100 µM"
- molecule: "O=C1C(CN2CCCC2)CCCC1CN1CCCC1 (stereo unspecified)"
  TGI: "0.445 µM"

Values from PubChem BioAssay (NCI)
